Assay: solvent given as SMILES
Details: in ClCCl
Kindly return true (1) if reported absorption maximum is no lower than 400 nm; return false (0) if it is lower.

Here's what some known entries look like.
CCCCc1cc2c3c(c1)-c1ccccc1B(c1c(C)cc(C)cc1C)N3B(c1c(C)cc(C)cc1C)c1ccccc1-2 false (0)
CC(C)(C)c1ccc2c(c1)c1cc(C(C)(C)C)ccc1n2-c1ccc(N(c2ccc(-c3ccc(-c4ccc(-c5ccc(-c6ccc(N(c7ccc(-n8c9ccc(C(C)(C)C)cc9c9cc(C(C)(C)C)ccc98)cc7)c7ccc(-n8c9ccc(C(C)(C)C)cc9c9cc(C(C)(C)C)ccc98)cc7)cc6)s5)c5nsnc45)s3)cc2)c2ccc(-n3c4ccc(C(C)(C)C)cc4c4cc(C(C)(C)C)ccc43)cc2)cc1 true (1)
C(#Cc1ccc(-n2c3ccccc3c3ccccc32)cc1)c1ccccc1 false (0)

Now, please, on to the next compound.
Task: Reported absorption maximum reaches at least 400 nm for O=C1/C(=C/C=C/c2cc3c4c(c2)CCCN4CCC3)CC/C1=C\C=C\c1cc2c3c(c1)CCCN3CCC2 ?
Output: true (1)

* * *

The following molecules are shown together with reported absorption maximum values.
Assay: solvent given as SMILES
Settings: in ClCCl
Expressed in nm, but write only the number.

Consider the worked cases shown below.
CCOc1ccc(/C=C/C=C/C=C/c2ccc([N+](=O)[O-])cc2)cc1 420
CC(C)(C)c1ccc(-c2cc(-c3ccc(-c4cc(-c5ccc(C(C)(C)C)cc5)c(C(=O)NCc5ccccc5)s4)s3)sc2C(=O)NCc2ccccc2)cc1 394
c1ccc2c(c1)-c1ccccc1C21c2cc(-c3ccc(-n4c5ccccc5c5ccccc54)cc3)ccc2Sc2ccc(-c3ccc(-n4c5ccccc5c5ccccc54)cc3)cc21 341
CC(C)(C)NC(=O)c1cccc2ccc3c4ccccc4c4ccccc4c3c12 332
COc1ccc(/C=C/C(=O)c2ccccc2O)cc1OC 353
N#Cc1ncc(-c2c3ccccc3c(-c3cnc(C#N)nc3)c3ccccc23)cn1 397
C(=C\c1ncc(-c2ccc(OCc3ccccc3)c(OCc3ccccc3)c2)o1)/c1cccc(N2CCN(c3ccccc3)CC2)c1 355

Now examine the next entry.
Task: Item under review: COc1ccc(C#Cc2c(C#Cc3ccc(OC)cc3)c(C#Cc3ccc(OC)cc3)c(C#Cc3ccc(OC)cc3)c(C#Cc3ccc(OC)cc3)c2C#Cc2ccc(OC)cc2)cc1 . Reported absorption maximum?
Output: 386

* * *

Assay: solvent given as SMILES
Settings: in CC#N
Kindly return t if reported absorption maximum is no lower than 400 nm; return f if it is lower.

Here's what some known entries look like.
CNCCCN1c2ccccc2CCc2ccccc21 f
CCOC(=O)c1c(NC(C)(C)C)oc(-c2ccc(-c3ccccc3)cc2)c1C(=O)OCC f
CCCCCCc1ccc2c3c(ccc2c1)O[B-](F)(F)[N+](c1cc([N+]2=Cc4c(ccc5cc(CCCCCC)ccc45)O[B-]2(F)F)cc([N+]2=Cc4c(ccc5cc(CCCCCC)ccc45)O[B-]2(F)F)c1)=C3 t
CCCCCCCCC1(CCCCCCCC)c2ccccc2-c2ccc(N(c3ccc(-n4c5ccccc5c5ccccc54)cc3)c3ccc4c(c3)C(CCCCCCCC)(CCCCCCCC)c3ccccc3-4)cc21 f
CCC1=C(C)C(=O)n2c1cc1c(C)c(CC)c(C)n1c2=O t

Now, please, on to the next compound.
Task: Reported absorption maximum reaches at least 400 nm for c1ccc(-c2nc(-c3cccc4ccccc34)n3ccccc23)cc1 ?
Output: f

FYI, the data here is from the Deep4Chem optical property database.
